Source listed as PubChem BioAssay (NCI).

- System: SK-MEL-2 melanoma
- EXPERIMENTAL DETAILS: NCI-60 one-dose screen, 48 h
- SETUP CONDITIONS: 10 µM unless noted
This is part of a sample that, as a whole, favours compounds with a hit. Of some 83,000 tested, about 20% had one in any assay. Activity calls are given as the source filed them. Rule for the calls: active = growth percent below 10; inactive = the rest.
Result category, one only: 1 for active, -1 for inactive

molecule="Cc1ccc(C2CC(c3cccc(Nc4ccncc4)c3)=NN2c2ccccc2)cc1 (stereo not drawn)" system_tested="SK-MEL-2 melanoma" answer_label=1
molecule=CC(C)(C)CC(C)(C)Nc1c(-c2ccc3c(c2)OCO3)nc2cnccn12 system_tested="SK-MEL-2 melanoma" answer_label=-1
molecule=COc1ccc(Cl)cc1NC(=O)c1c(NC(=O)C(F)(F)C(F)(F)F)sc2c1CCCCC2 system_tested="SK-MEL-2 melanoma" answer_label=1

### Prompt Each molecule tested received a call. Report the one for OC(c1ccccc1)c1ccccn1 (stereo not drawn) .
### Response -1

### Prompt // repeat for `COc1ccc(-c2nc(SC)nc(N3CCOCC3)c2C#N)cc1` and report
### Response -1

### Prompt // repeat for `O=C(/C=C/c1ccc[nH]1)c1ccc(-n2ccc(C(F)(F)F)n2)cc1` and report
### Response -1

### Prompt // repeat for `CCCCCCCCOC(=O)c1ccc(O)c(OC)c1` and report
### Response -1

### Prompt // repeat for `COc1ccc(OC)c(/C=C/[C@H]2O[C@@H](C)[C@H](O)[C@@H]2O)c1` and report
### Response -1

----------
- Tested on: COLO 205 colon
- EXPERIMENTAL DETAILS: NCI-60 one-dose screen, 48 h (100 = growth as untreated, 0 = no growth, -100 = all killed)
- SETUP CONDITIONS: 10 µM unless noted
- Protocol: Cells are grown in 96 well plates and exposed to the test compound for 48 hours. Compounds are tested at a single concentration, which is 10^-5 M for most compounds. The reported endpoint is percent growth (GI% or GIPRCNT), where numbers from 0 - 100% represent growth inhibition, and numbers from -100% - 0 represent cell death. For example, a value of 40 represents 60% growth inhibition. A value of 0 means no net growth occurred over the course of the experiment. […]
Compounds without any hit were thinned out: in the full panel of roughly 83,000, 20% have a hit.
PROPERTY: growth (%)
Numbers only, in %.

Kindly give each listed record's growth.
1. CC(=O)N1c2ccccc2NC2=C(C(=O)N(Cc3ccccc3)C2(C)C)C1c1ccco1 (configuration not stated)
2. O=C1C(=O)c2c(nc3ncccn23)-c2ccccc21
3. O=C(Nc1ccc2ncnc(Nc3ccc(Oc4cccc(F)c4)c(Cl)c3)c2c1)c1ccc(CNCCO)cc1
4. CCCNC(=O)Oc1ccc(/C(=C(\C)c2ccccc2)c2ccc(OCCN3CCCCC3)cc2)cc1

### Response
[16.8, -70.7, -54.5, 38]

Kindly give each listed record's growth.
1. C/C(=C(/c1ccccc1)c1ccc(OCC(O)CN2CCOCC2)cc1)c1ccccc1 (configuration not stated)
2. CCCN=C(N)c1ccc(NC(=O)c2ccc(C(=O)Nc3ccc(C(N)=NCCC)cc3)cc2)cc1
3. Cc1cn(-c2cc(C(=O)Nc3cccc(C#Cc4cccc5[nH]nc(N)c45)c3)cc(C(F)(F)F)c2)cn1

### Response
[69.4, 70.5, 13.8]
